Hi, quick share: literature IC50 data for Estrogen receptor beta (Homo sapiens, UniProt Q92731), several sources combined.

Recorded IC50, per entry:
O=C1C=C2c3ccc4[nH]ncc4c3CC2(Cc2ccccc2)CC1 (stereo not given)
> 10 µM
COc1ccc(N2C(=O)c3ccc(O)cc3C2=O)cc1
> 5 µM
C[C@H]1OC2(CCC3=Cc4c(cnn4-c4ccc(F)cc4)C[C@@]32C)O[C@@H]1C
> 10 µM

IN: Fetch value of IC50 on Estrogen receptor beta (Homo sapiens, UniProt Q92731) for CC#C[C@]1(O)C[C@H]2CCc3cc(O)ccc3[C@]2(CC)C[C@@H]1O .
Sequence (Q92731 whole entry): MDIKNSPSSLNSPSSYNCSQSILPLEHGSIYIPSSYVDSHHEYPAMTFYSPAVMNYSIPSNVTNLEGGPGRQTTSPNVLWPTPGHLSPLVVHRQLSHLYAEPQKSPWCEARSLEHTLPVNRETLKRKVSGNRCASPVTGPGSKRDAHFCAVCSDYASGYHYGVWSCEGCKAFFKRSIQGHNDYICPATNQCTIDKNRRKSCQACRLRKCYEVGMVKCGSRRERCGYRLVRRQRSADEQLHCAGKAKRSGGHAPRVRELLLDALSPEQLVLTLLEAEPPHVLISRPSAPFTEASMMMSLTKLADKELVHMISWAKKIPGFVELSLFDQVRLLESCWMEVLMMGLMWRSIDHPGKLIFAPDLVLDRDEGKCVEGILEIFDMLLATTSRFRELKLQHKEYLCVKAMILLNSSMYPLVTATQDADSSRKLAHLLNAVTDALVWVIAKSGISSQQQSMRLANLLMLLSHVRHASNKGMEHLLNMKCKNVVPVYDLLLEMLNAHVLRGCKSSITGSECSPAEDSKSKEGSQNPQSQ
OUT: > 10 µM

IN: Fetch value of IC50 on Estrogen receptor beta (Homo sapiens, UniProt Q92731) for C1=C(c2ccccc2)C2(Cc3ccccc3C2)c2ccccc21 .
OUT: > 10 µM

* * *

Hi, quick share: literature IC50 data for Estrogen receptor beta (Homo sapiens), several sources combined.
Give the value in µM but do not write µM after it.

Oc1ccc(-c2noc3ccc(O)cc23)c(O)c1
0.138
CCCCCc1c(O)cc(O)c2c1O[C@H](c1ccc(O)cc1)CC2=O
0.097
O=C(c1ccc(OCCN2C=Cc3ccccc3C2)cc1)c1c(-c2ccc(O)cc2)oc(=O)c2cc(O)ccc12
0.0427
O=C1c2ccc(O)cc2C(=O)N1c1ccc(O)cc1
1.98
CC[C@@]12CCC(=O)C(Cl)=C1c1ccc3[nH]nc(F)c3c1C2
0.0011

Next, consider the following compound.
IN: Look up IC50 of Fc1ccc(C2=C(c3ccc(OCCN4CCCC4)cc3)c3ccc(F)cc3OCC2)cc1 and report it.
OUT: 0.262

* * *

Hi, quick share: literature IC50 data for Estrogen receptor beta (Homo sapiens), several sources combined.
Give the value in nM but do not write nM after it.

Recorded IC50, per entry:
Oc1ccc([C@H]2Sc3cc(O)ccc3O[C@H]2c2ccc(N3CCNCC3)cc2)cc1
186
Oc1ccc(-c2ccc3c(Cl)c(O)ccc3n2)cc1
30
CCN(CC)CCOc1ccc([C@H]2Oc3cc(F)ccc3C3=C2c2ccc(O)cc2OCC3)cc1
108
COc1cc(O)c(Br)c2nc(-c3ccc(O)c(F)c3)oc12
52
C[C@H](c1ccc(F)cc1)N1C(=O)O[C@](Cc2ccc(F)cc2)(C(=O)NCc2ccc(Cl)c(Cl)c2)C1=O
15000

IN: Fetch value of IC50 on Estrogen receptor beta (Homo sapiens) for N#Cc1cc(O)cc2ncn(-c3ccc(O)cc3)c(=O)c12 .
OUT: 73700

IN: Fetch value of IC50 on Estrogen receptor beta (Homo sapiens) for Cc1cc(O)ccc1-c1ccc2cc(O)ccc2c1 .
OUT: 10

IN: Fetch value of IC50 on Estrogen receptor beta (Homo sapiens) for CCC1Oc2cc(O)cc(C)c2N=C1c1ccc(O)c(Br)c1 (stereo unspecified) .
OUT: 90

IN: Fetch value of IC50 on Estrogen receptor beta (Homo sapiens) for C#Cc1cc(-c2ccc(O)c(F)c2)cc2ccc(O)cc12 .
OUT: 6.3

* * *

Hi, quick share: literature IC50 data for Estrogen receptor beta (Homo sapiens, UniProt Q92731), several sources combined.
# Yes = IC50 below 20 nM (exclusive); No = IC50 at/above 20 nM

IN: Please state whether IC50 is below 20 nM for CC(C)[C@H]1Sc2cc(O)ccc2O[C@H]1c1ccc(OCCN2CCCCC2)cc1
OUT: No

IN: Please state whether IC50 is below 20 nM for NC1=C(c2ccc(O)cc2)C(=O)c2cc(O)ccc21
OUT: No

IN: Please state whether IC50 is below 20 nM for CCN(CC)CCOc1ccc(Cn2c3ccccc3c3sc4cc(O)ccc4c32)cc1
OUT: No

IN: Please state whether IC50 is below 20 nM for O=C1C(c2ccc(O)cc2)=C(Br)c2cc(O)ccc21
OUT: Yes

IN: Please state whether IC50 is below 20 nM for Nc1cc(O)cc2ncn(-c3ccc(O)cc3)c(=O)c12
OUT: No

* * *

Hi, quick share: literature IC50 data for Estrogen receptor beta (Homo sapiens, UniProt Q92731), several sources combined.
Give the value in nM but do not write nM after it.

Recorded IC50, per entry:
C[C@@H]1CCN([C@@H](C)COc2ccc([C@@H]3Oc4ccc(O)c(F)c4S[C@@H]3c3cccc(O)c3)cc2)C1
9.1
CC[C@@]12CCC(=O)C(C)=C1c1ccc3[nH]ncc3c1C2
7.2

Next, consider the following molecule.
IN: Look up IC50 of Oc1ccc(-c2cc(Cl)c3c(Cl)c(O)ccc3c2)cc1 and report it.
OUT: 9

* * *

Hi, quick share: literature pIC50 data for Estrogen receptor beta (Homo sapiens), several sources combined.
Would you please state pIC50, meaning minus log10 of the concentration in mol/L, as a bare number?

Recorded pIC50, per entry:
O=Cc1cc(-c2ccc(O)c(F)c2)cc2ccc(O)cc12
8.47
CCN(CC)CCOc1ccc([C@@H]2Oc3cc(F)ccc3C3=C2c2ccc(O)cc2OCC3)cc1
7.96
O=c1c2c(O)cc(O)cc2ncn1-c1ccc(O)nc1
4.29
CCC1=C2c3ccc4[nH]nnc4c3C[C@@]2(CC)CCC1=O
5.82

Next, consider the following molecule.
IN: Look up pIC50 of Oc1ccc(-c2ccc3c(F)c(O)ccc3c2)cc1 and report it.
OUT: 8.15

* * *

Hi, quick share: literature pIC50 data for Estrogen receptor beta (Homo sapiens, UniProt Q92731), several sources combined.
pIC50: −log10 of the molar value.

Recorded pIC50, per entry:
CC(C)[C@H](NC(=O)C(C)(F)F)[C@H](Oc1ccc2c(cnn2-c2ccc(=O)n(C)c2)c1)c1ccccc1
< 4.00
N#Cc1cc(O)cc2c1oc1c(=O)c3ccc(O)cc3oc12
< 5.30
C=C[C@H]1OC2(CCC3=Cc4c(cnn4-c4ccc(F)cc4)C[C@@]32C)O[C@@H]1C=C
< 5.00

Next, consider the following compound.
IN: Look up pIC50 of C[C@H]1C[C@H](C)OC2(CCC3=Cc4c(cnn4-c4ccc(F)cc4)C[C@@]32C)O1 (some centres undefined) and report it.
OUT: < 5.00
